system: bile acid transport in the ileum; experiment: Ileum perfusion test: inhibition of bile acid (3H-taurocholic acid) transport in the ileum of anesthetized rats; format: in vivo, Male Wistar rats; conditions: rat ileum perfusion; 3 mM taurocholic acid, pH 7.4, 37° C.; 3H-TCA in bile at 80-90 min vs 30-40 min; diastereomeric mixtures unless indicated otherwise
Observable: EC50 (nM)

Molecule: CCCCC1(CC)CS(=O)(=O)c2ccc(N(C)C)cc2C(c2cccc(NC(=O)[C@H](O)[C@@H](O)[C@H](O)[C@H](O)CO)c2)N1O (some centres unmarked) [Example 2]
EC50 (nM): 150

Molecule: CCCCC1(CC)CS(=O)(=O)c2ccc(N(C)C)cc2C(c2cccc(NC(=O)[C@H](O)[C@@H](O)[C@H](O)[C@H](O)CO)c2)N1 (some centres unmarked) [Example 1]
EC50 (nM): 90

Molecule: CCCC[C@]1(CC)CS(=O)(=O)c2cc(OC)c(OC)cc2[C@@H](c2ccccc2)N1 [Comparison Example 8, reference compound]
EC50 (nM): 9800

Molecule: CCCCC1(CCCC)CS(=O)(=O)c2ccc(N(C)C)cc2C(c2cccc(NC(=O)CCCCNC[C@H](O)[C@@H](O)[C@H](O)[C@H](O)CO)c2)N1 (some centres unmarked) [Example 7]
EC50 (nM): 1400

Molecule: CCCCC1(CC)CS(=O)(=O)c2ccc(N(C)C)cc2C(c2cccc(NC(=O)CCCCCCCCCCNC(=O)[C@H](O)[C@@H](O)[C@H](O)[C@H](O)CO)c2)N1 (some centres unmarked) [Example 4]
EC50 (nM): 720

a = CCCCC1(CC)CS(=O)(=O)c2ccc(N(C)C)cc2C(c2cccc(NC(=O)CCCCNC[C@H](O)[C@@H](O)[C@H](O)[C@H](O)CO)c2)N1 (some centres unmarked) [Example 3]
b = CCCCC1(CCCC)CS(=O)(=O)c2ccc(N(C)C)cc2C(c2cccc(NC(=O)[C@H](O)[C@@H](O)[C@H](O)[C@H](O)CO)c2)N1O (some centres unmarked) [Example 6]
For the pair a and b , which member has the lower EC50 number? Indicate your choice by writing its label.
b
